Assayed System: Tyrosine-protein kinase SYK (Homo sapiens, UniProt P43405); note: in the data inactive means no Kd found up to 30 µM
Activity calls are given as the source filed them.
// one of label 1 for active, label 0 for inactive, no free text

Examples with answers:
{"columns": ["Compound", "Class Name"],
 "data": [
  ["CNC(=O)c1ccc(Nc2ncc(C(F)(F)F)c(NCc3nccnc3N(C)S(C)(=O)=O)n2)cc1 [DEFACTINIB]", "label 0"],
  ["COc1ccc2c(OCc3nnc4ccc(-c5ccccc5)nn34)ccnc2c1 [AMG-208]", "label 0"],
  ["Cc1ccc(C(=O)Nc2ccc(Oc3cc4cnn(C)c4cc3-c3cn[nH]c3)c(F)c2)c(=O)n1-c1ccc(F)cc1 [MERESTINIB]", "label 0"]
]}

Input line: State the result this test recorded for Cc1cc(C(=O)Nc2cc(Oc3ccc4nc(NC(=O)C5CC5)cn4n3)ccc2C)n(C)n1 [TAK-593] .
Output line: label 0

Input line: State the result this test recorded for CCN1CCN(Cc2ccc(Nc3ncc(F)c(-c4cc(F)c5nc(C)n(C(C)C)c5c4)n3)nc2)CC1 [ABEMACICLIB] .
Output line: label 0

Input line: Query: recorded result category for COCCN1CCN(Cc2ccc(-c3n[nH]c4c3C(=O)c3c(NC(=O)NN5CCOCC5)cccc3-4)cc2)CC1 [RGB-286638] in this test
Output line: label 0

Input line: Outcome? CCc1cc2c(cc1N1CCC(N3CCOCC3)CC1)C(C)(C)c1[nH]c3cc(C#N)ccc3c1C2=O [ALECTINIB]
Output line: label 0

Input line: For CCc1nc(C(N)=O)c(Nc2ccc(N3CCC(N4CCN(C)CC4)CC3)c(OC)c2)nc1NC1CCOCC1 [GILTERITINIB] , which call appears in the assay record?
Output line: label 1

###

Assayed System: ATP-dependent 6-phosphofructokinase, platelet type (Homo sapiens); note: in the data inactive means no Kd found up to 30 µM
Sequence (Q01813 whole entry): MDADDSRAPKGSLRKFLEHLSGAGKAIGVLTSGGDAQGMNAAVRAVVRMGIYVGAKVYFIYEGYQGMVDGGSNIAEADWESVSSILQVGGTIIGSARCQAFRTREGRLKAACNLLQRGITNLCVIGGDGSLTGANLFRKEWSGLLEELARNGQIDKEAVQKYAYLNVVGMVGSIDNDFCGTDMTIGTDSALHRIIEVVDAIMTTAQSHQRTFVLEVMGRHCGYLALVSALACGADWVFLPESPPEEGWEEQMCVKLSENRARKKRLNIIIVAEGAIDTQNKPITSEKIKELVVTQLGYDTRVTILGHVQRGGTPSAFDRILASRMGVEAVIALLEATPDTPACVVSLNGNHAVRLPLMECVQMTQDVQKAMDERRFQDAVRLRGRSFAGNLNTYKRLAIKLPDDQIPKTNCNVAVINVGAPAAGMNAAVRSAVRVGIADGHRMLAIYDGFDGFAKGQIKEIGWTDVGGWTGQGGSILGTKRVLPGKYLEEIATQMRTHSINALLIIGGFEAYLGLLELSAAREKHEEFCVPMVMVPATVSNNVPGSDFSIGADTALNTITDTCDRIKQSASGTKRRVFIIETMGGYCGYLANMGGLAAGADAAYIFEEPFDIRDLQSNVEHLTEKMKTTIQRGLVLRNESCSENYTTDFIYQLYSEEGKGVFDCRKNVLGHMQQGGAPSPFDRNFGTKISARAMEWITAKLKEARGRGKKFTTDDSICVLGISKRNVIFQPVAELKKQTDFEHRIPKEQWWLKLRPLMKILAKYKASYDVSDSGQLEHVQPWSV
Calls of active or inactive are those of the source.
Respond using exactly one of the listed classes: y (active), n (inactive)

{"columns": ["Compound", "Class Name"],
 "data": [
  ["COc1cc(F)c(F)c(Nc2ccc(I)cc2F)c1NS(=O)(=O)C1(C[C@H](O)CO)CC1", "n"],
  ["O[C@H]1CC[C@H](Nc2ncc3nc(Nc4c(F)cc(F)cc4F)n([C@H]4CCOC4)c3n2)CC1", "n"],
  ["CC(C)(O)CC(=O)NCCn1ccc2ncnc(Nc3ccc(Oc4cccc(C(F)(F)F)c4)c(Cl)c3)c21", "n"],
  ["O=S(=O)(c1cccc2c(O)nccc12)N1CCCNCC1 [HYDROXYFASUDIL]", "n"],
  ["COc1cc2ncnc(Nc3ccc(F)c(Cl)c3)c2cc1NC(=O)/C=C/CN1CCCCC1 [DACOMITINIB ANHYDROUS]", "n"],
  ["c1cc(OCCN2CCCCC2)cc(-c2n[nH]c3ccc(-c4nc[nH]n4)cc23)c1", "n"],
  ["S=C(NCc1ccc2c(c1)OCO2)N1CCN(c2ncnc3c2oc2ccccc23)CC1", "n"],
  ["CNC(=O)c1cccc(-c2ccc3c(N4CCOC[C@@H]4C)nc(N4CCOC[C@@H]4C)nc3n2)c1", "y"],
  ["C=CC(=O)Nc1cc(Nc2nccc(-c3cn(C)c4ccccc34)n2)c(OC)cc1N(C)CCN(C)C", "n"],
  ["C[C@@]1(C(=O)Nc2ccc(F)nc2)CCCN1c1nc(Nc2cc(C3CC3)n[nH]2)c2cccn2n1", "n"]
]}

Input line: Recorded test outcome, item CCOc1ccn(-c2ccc(F)cc2)c(=O)c1C(=O)Nc1ccc(Oc2ccnc(N)c2Cl)c(F)c1
Output line: n

Input line: Recorded test call requested for CC1(COc2ccc3c(c2)ncn3-c2ccc3cccc(N4CCC(N)CC4)c3n2)COC1
Output line: n

Input line: Check the results log: what was the call for Cc1ccc(C(=O)Nc2ccc(Oc3cc4cnn(C)c4cc3-c3cn[nH]c3)c(F)c2)c(=O)n1-c1ccc(F)cc1 ?
Output line: n

Input line: Please indicate how the test categorized Cn1cc(-c2[nH]c3cc(NC(=O)[C@H](N)C4CCCCC4)cc4c3c2C=NNC4=O)cn1 .
Output line: n

Input line: What call does the record list for COc1ccc(-c2ccc3ncc4c(c3c2)n(-c2ccc(N3CCNCC3)c(C(F)(F)F)c2)c(=O)n4C)cn1 [BGT-226 FREE BASE] ?
Output line: n

Input line: Per the records of this test, what outcome belongs to C[C@]1(O)C[C@@H](c2nc(-c3ccc4ccc(-c5ccccc5)nc4c3)c3c(N)nccn32)C1 ?
Output line: n
